measurement-target: BCL2 D111A (Homo sapiens, UniProt P10415, D111A)
assay-info: TR-FRET competitive binding assay, BCL2 D111A
condition-summary: Ki determined from IC50, read-out: TR_FRET EKI_Bcl2 D111A
Procedure: The relative binding potency of each compound was determined in a competitive binding assay using time resolved-fluorescence resonance energy transfer (TR-FRET). […] The degree of binding or corresponding compound inhibition can be quantified by the TR-FRET signal between the terbium donor and fluorescein acceptor. […] TR-FRET measurements were performed on a Biotek Synergy Neo plate reader. […] The TR-FRET signal was calculated as the emission-ratio at 520 nm over 495 nm. […]
measurement-type: Ki (pM)

Cc1c(N(C(=O)c2cc(-c3cc4c(cc3C(=O)N3Cc5ccccc5C[C@H]3CN3CCCCC3)CN(C(=O)Cc3ccc(OCCN5CCOC(C)C5)cc3F)CC4)n(C)c2C)c2ccc(O)cc2)cc(C#N)n1C (single isomer, unassigned) [Example 109] | 120
Cc1c(N(C(=O)c2cc(-c3cc4c(cc3C(=O)N3Cc5ccccc5C[C@H]3CN3CCCCC3)CN(C(=O)Cc3ccc(OCCN5CCOC(C)C5)cc3F)CC4)n(C)c2C)c2ccc(O)cc2)cc(C#N)n1C (single isomer, unassigned) [Example 108] | 160
Cc1c(N(C(=O)c2cc(-c3cc4c(cc3C(=O)N3Cc5ccccc5C[C@H]3CN3CCCCCC3)CN(C(=O)Cc3ccc(OCCN5CCOCC5)cc3F)CC4)n(C)c2C)c2ccc(O)cc2)cc(C#N)n1C [Example 96] | 200
Cc1c(N(C(=O)c2cc(-c3cc4c(cc3C(=O)N3Cc5ccccc5C[C@H]3CN3CCC5(CC3)CC5)CN(C(=O)Cc3ccc(OCCN5CCOCC5)cc3F)CC4)n(C)c2C)c2ccc(O)cc2)cc(C#N)n1C [Example 126] | 380
Cc1c(C(=O)N(c2ccc(O)cc2)c2cnc3c(cnn3C)c2)cc(-c2cc3c(cc2C(=O)N2Cc4ccccc4C[C@H]2C)CN(C(=O)Cc2ccc(OCCN4CCOCC4)cc2)CC3)n1C [Example 62] | 90
Cc1c(N(C(=O)c2cc(-c3cc4c(cc3C(=O)N3Cc5ccccc5C[C@H]3CN3CCC(F)CC3)CN(C(=O)Cc3ccc(OCCN5CCOCC5)cc3F)CC4)n(C)c2C)c2ccc(O)cc2)cc(C#N)n1C [Example 86] | 230
Cc1c(N(C(=O)c2cc(-c3cc4c(cc3C(=O)N3Cc5ccccc5C[C@H]3CN3CCCCC3)CN(C(=O)Cc3ccc(OCCN5CCOCC5)cc3F)CC4)n3ccccc23)c2ccc(O)cc2)cc(C#N)n1C [Example 136] | 350

I. Cc1c(N(C(=O)c2cc(-c3cc4c(cc3C(=O)N3Cc5ccccc5C[C@H]3CN3CCCCC3)CN(C(=O)Cc3ccc(OCCN5C[C@@H](C)O[C@@H](C)C5)cc3)CC4)n(C)c2C)c2ccc(O)cc2)cc(C#N)n1C [Example 98]
II. Cc1c(C(=O)N(c2ccc(O)cc2)c2cc(C#N)n(C(F)F)c2C)cc(-c2cc3c(cc2C(=O)N2Cc4ccccc4C[C@H]2CN2CCCC2)CN(C(=O)Cc2ccc(OCCN4CCOCC4)cc2F)CC3)n1C [Example 110]
Of the pair I and II , name the member with the lesser recorded Ki. // respond with label for picked entry
II

Values were extracted from patent US20250179047A1.
